Quick list: koff per entry.
# Tested on: T1, cynoSIRPα (XP_015313155), Extracellular Domain + His-Tag (cynomolgus monkey)
# T1 construct: also called CySIRPα XP_015313155; not shown: His-Tag
# T1 chain: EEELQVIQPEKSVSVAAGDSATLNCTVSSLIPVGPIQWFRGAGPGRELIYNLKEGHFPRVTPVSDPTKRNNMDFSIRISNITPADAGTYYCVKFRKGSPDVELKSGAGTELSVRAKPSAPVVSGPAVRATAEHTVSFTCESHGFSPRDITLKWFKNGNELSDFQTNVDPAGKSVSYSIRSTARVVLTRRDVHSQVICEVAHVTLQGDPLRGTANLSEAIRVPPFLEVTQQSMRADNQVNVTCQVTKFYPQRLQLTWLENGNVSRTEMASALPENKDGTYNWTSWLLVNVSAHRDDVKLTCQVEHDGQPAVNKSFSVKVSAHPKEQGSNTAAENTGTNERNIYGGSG
# Assay method text: SPR, antibody captured on Protein A/G, ECD-His analyte, 1:1 fit
Number only, in s⁻¹; omit the unit.

Binder | koff [s⁻¹]
Antibody E15 (antibody, human IgG1, kappa, L234A L235A, V domains shown) VH: QVQLQESGPGLVRPSETLSLTCTVSGGSIRNYYWSWIRQPPGKGLEWIGFIYYTGRTFYNPSLKSRVTISLDMSINQFSLKMTSVTAADTAVYYCARVRAYSGIGLDGTDVWGQGTTVTVSS VL: DIVMTQSPLSLPVTPGEPASISCKSSQSLLYSNGYAYLDWYLQRPGQSPQLLIYLGSNRASGVPDRFSGSGSGTDFTLKISRVEAEDVGVYYCMQALQTPLTFGGGTKVEIKR | 0.0113
Antibody E16 (antibody, human IgG1, kappa, L234A L235A, V domains shown) VH: QVQLQESGPGLVRPSETLSLTCTVSGGSIRNYYWSWIRQPPGKGLEWIGFIYYNGRTFYNPSLKSRVTISLDTSKNQFSLKMTSVTAADTAVYYCARVRAYSGIGLDGTDVWGQGTTVTVSS VL: DIVMTQSPLSLPVTPGEPASISCKSSQSLLYSNAYNYLDWYLQRPGQSPQLLIYLGSNRASGVPDRFSGSGSGTDFTLKISRVEAEDVGVYYCMQALQTPLTFGGGTKVEIKR | 0.0147
Antibody E8 (antibody, human IgG1, kappa, L234A L235A, V domains shown) VH: QVQLQESGPGLVRPSETLSLTCTVSGGSIRNYYWSWIRQPPGKGLEWMGFIYDNGRTFYNPSLKSRVTISLDMSMNQFSLKMTSVTAADTAVYYCARVRAYSGIGLDGTDVWGQGTTVTVSS VL: DIVMTQSPLSLPVTPGEPASISCKSSQSLLYSNGYAYLDWYLQRPGQSPQLLIYQGSNRASGVPDRFSGSGSGTDFTLKISRVEAEDVGVFYCMQALQTPLTFGGGTKVEIKR | 0.00344
Antibody E21 (antibody, human IgG1, kappa, L234A L235A, V domains shown) VH: QVQLQESGPGLVRPSETLSLTCTVSGGSIRNYYWSWIRQPPGKGLEWIGFIYYTGRTFYNPSLKSRVTISLDMSKNQFSLKMTSVTAADTAVYYCARVRAYSGIGLDGTDVWGQGTTVTVSS VL: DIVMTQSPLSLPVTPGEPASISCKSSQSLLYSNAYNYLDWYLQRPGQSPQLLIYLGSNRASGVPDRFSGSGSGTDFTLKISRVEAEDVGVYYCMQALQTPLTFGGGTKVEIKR | 0.0245

Attention now shifts to the item below.
# input Any idea what koff was measured for Antibody E14 (antibody, human IgG1, kappa, L234A L235A, V domains shown) VH: QVQLQESGPGLVRPSETLSLTCTVSGGSIRNYYWSWIRQPPGKGLEWIGFIYYNGRTFYNPSLKSRVTISLDKSKNQFSLKMTSVTAADTAVYYCARVRAYSGIGLDGTDVWGQGTTVTVSS VL: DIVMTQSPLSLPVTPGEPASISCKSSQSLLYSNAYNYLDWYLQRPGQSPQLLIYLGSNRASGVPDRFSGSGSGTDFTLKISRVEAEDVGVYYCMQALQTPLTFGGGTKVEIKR ?
# output 0.0173
